# STUDY TARGET: BRD4 Bromodomain 2 (BRD4 BD2) (Homo sapiens)
# Construct: 333-460 were cloned, expressed, and purified to homogeneity
# PROCEDURE TEXT: AlphaScreen binding assay, BRD4 BD2
# STATED CONDITIONS: His-tagged BRD4 BD2 100 nM, biotinylated H4 (1-21) K5/8/12/16 tetra-acetylated peptide 100 nM, compounds listed under IC50 range headings
pIC50: −log10 of the molar value.
Please respond with reported pIC50 for every item in the list.

**Query** // returns reported pIC50 for input COC(=O)N1c2ccc(-c3cnn(C4CCNCC4)c3)c(Oc3cnccn3)c2CC[C@@H]1C [I-526]
**Result** 6.30 to 7.30

**Query** Try this compound too: CC(=O)N1c2ccc(-c3cnn(CCO)c3)c(Oc3ncc(F)cn3)c2CC[C@@H]1C [I-543]
**Result** 6.30 to 7.30

**Query** Please give the result for CC(=O)N1c2ccc(-c3cnn(CCS(C)(=O)=O)c3)c(OC[C@H]3CCC(=O)N3)c2CC[C@@H]1C [I-432] too.
**Result** 6.30 to 7.30

**Query** Item: COC(=O)N1c2ccc(-c3cnn([C@H]4CCNC[C@@H]4F)c3)c(OC3CCC3)c2CC[C@@H]1C [I-363]
**Result** > 7.30

**Query** And what about the compound CC(=O)N1c2ccc(-c3cnn(C4CCNCC4)c3)c(Oc3ccnc(C(F)(F)F)n3)c2CC[C@@H]1C [I-515] ?
**Result** 6.30 to 7.30

**Query** What would you report for COC(=O)N1c2ccc(-c3cnn(CCO)c3)c(OC[C@H]3CCC(=O)N3)c2CC[C@@H]1C [I-469] ?
**Result** 6.30 to 7.30

**Query** Same lookup for COc1c(-c2cnn(C3CC3)c2)ccc2c1CC[C@H](C)N2C(C)=O [I-404] , please.
**Result** 6.30 to 7.30

**Query** Please answer likewise for CCNC(=O)COc1c(-c2cnn(C3CC3)c2)ccc2c1CC[C@H](C)N2C(=O)OC [I-21]
**Result** 6.30 to 7.30

###

Record form. Attribute: pIC50. Fill in for each entry.
# STUDY TARGET: BRD4 Bromodomain 2 (BRD4 BD2) (Homo sapiens, UniProt O60885)
# Construct: 333-460 were cloned, expressed, and purified to homogeneity
# PROCEDURE TEXT: AlphaScreen binding assay, BRD4 BD2
# STATED CONDITIONS: His-tagged BRD4 BD2 100 nM, biotinylated H4 (1-21) K5/8/12/16 tetra-acetylated peptide 100 nM, compounds listed under IC50 range headings
pIC50: −log10 of the molar value.

**Query** What measured pIC50 goes with `COC(=O)N1c2ccc(-c3cnn(CC(C)(C)O)c3)c(Oc3ncc(C(F)(F)F)cc3F)c2CC[C@@H]1C` ?
**Result** 6.30 to 7.30

**Query** Record: `COC(=O)N1c2ccc(-c3cnn(C4CC4)c3)c(Oc3ccc(C#N)cc3)c2CC[C@@H]1C`
**Result** 6.30 to 7.30

**Query** Follow-up item: `COC(=O)N1c2ccc(-c3cnn(CCS(C)(=O)=O)c3)c(OCC3CCOCC3)c2CC[C@@H]1C`
**Result** 6.30 to 7.30

**Query** Then what about the compound `CC(=O)N1c2ccc(-c3cnn(CCS(C)(=O)=O)c3)c(Oc3ncc(F)cn3)c2CC[C@@H]1C` ?
**Result** > 7.30

**Query** Subsequent entry: `CC(=O)N1c2ccc(-c3cnn(C4CCNCC4)c3)c(Oc3ncccc3C(N)=O)c2CC[C@@H]1C`
**Result** 6.30 to 7.30

**Query** Entry `CCCOc1c(-c2cnn(CC(C)(C)O)c2)ccc2c1CC[C@H](C)N2C(C)=O` please
**Result** > 7.30

**Query** // query: `COC(=O)N1c2ccc(-c3cnn(C4CCNCC4)c3)c(Oc3cc(N4CCOCC4)ncn3)c2CC[C@@H]1C`
**Result** ≤ 6.30

**Query** Entry to check: `CC(=O)N1c2ccc(-c3cnn(CCS(C)(=O)=O)c3)c(OC3CCC3)c2CC[C@@H]1C`
**Result** > 7.30

**Query** How about `COC(=O)N1c2ccc(-c3cnn(C4CCNCC4)c3)c(Oc3nccc(C(F)(F)F)n3)c2CC[C@@H]1C` ?
**Result** 6.30 to 7.30

**Query** Also check `CC(=O)N1c2ccc(-c3cnn(C4CC4)c3)c(Oc3cnccn3)c2CC[C@@H]1C`
**Result** > 7.30

**Query** And what about the compound `C[C@H]1CCc2c(ccc(-c3cnn(C4CCNCC4)c3)c2OC2CCC2)N1C(=O)C1CC1` ?
**Result** > 7.30

**Query** Also need `COC(=O)N1c2ccc(-c3cnn([C@@H]4CCNC[C@@H]4F)c3)c(Oc3ccc(F)cc3)c2CC[C@@H]1C` , thanks.
**Result** > 7.30

**Query** Cool, now `CC(=O)N1c2ccc(-c3cnn(C4CCNCC4)c3)c(OCC3CCCC3)c2CC[C@@H]1C`
**Result** > 7.30

**Query** For `CC(=O)N1c2ccc(-c3cnn(C4CC4)c3)c(OCC3CCCC3)c2CC[C@@H]1C` then?
**Result** > 7.30

**Query** Please answer likewise for COC(=O)N1c2ccc(-c3cnn(C4CCNC4)c3)c(OC3CCC3)c2CC[C@@H]1C (stereo partly shown)
**Result** > 7.30

**Query** Please do the same for `COC(=O)N1c2ccc(-c3cnn(C4CCNCC4)c3)c(OCC3CCOCC3)c2CC[C@@H]1C` as well.
**Result** 6.30 to 7.30

###

# STUDY TARGET: BRD4 Bromodomain 2 (BRD4 BD2) (Homo sapiens, UniProt O60885)
# Construct: 333-460 were cloned, expressed, and purified to homogeneity
# PROCEDURE TEXT: AlphaScreen binding assay, BRD4 BD2
# STATED CONDITIONS: His-tagged BRD4 BD2 100 nM, biotinylated H4 (1-21) K5/8/12/16 tetra-acetylated peptide 100 nM, compounds listed under IC50 range headings
pIC50: −log10 of the molar value.
REPORTED ENDPOINT: pIC50

**Query** Entry COC(=O)N1c2ccc(-c3cnn(C4CC4)c3)c(Oc3ncccc3C(N)=O)c2CC[C@@H]1C [I-587] : reported pIC50 = ?
**Result** 6.30 to 7.30

**Query** Quick one: COC(=O)N1c2ccc(-c3cnn(C4CCNCC4)c3)c(Oc3ccc(F)cc3C#N)c2CC[C@@H]1C [I-133]
**Result** > 7.30

**Query** Do the same for COC(=O)N1c2ccc(-c3cnn(C4CC4)c3)c(OCC(=O)N3CCCCC3)c2CC[C@@H]1C [I-24] please
**Result** > 7.30

**Query** CC(=O)N1c2ccc(-c3cnn(C4CC4)c3)c(OC3CNC3)c2CC[C@@H]1C [I-60] , same question.
**Result** ≤ 6.30

**Query** What do you have for CC(=O)N1c2ccc(-c3cnn(C4CC4)c3)c(OCC(N)=O)c2CC[C@@H]1C [I-391] ?
**Result** ≤ 6.30

**Query** And what about the molecule COC(=O)N1c2ccc(-c3cnn(CCS(C)(=O)=O)c3)c(OC[C@H]3CCNC3)c2CC[C@@H]1C [I-475] ?
**Result** 6.30 to 7.30

**Query** Also check CC(=O)N1c2ccc(-c3cnn(C4CC4)c3)c(Oc3ncc4[nH]cnc4n3)c2CC[C@@H]1C [I-289]
**Result** 6.30 to 7.30

**Query** Repeat with COC(=O)N1c2ccc(-c3cnn(C4CCNCC4)c3)c(Oc3ccc(Cl)cc3)c2CC[C@@H]1C [I-159]
**Result** > 7.30

**Query** Please do the same for CCCOc1c(-c2cc3ccccn3n2)ccc2c1CC[C@H](C)N2C(C)=O [I-118] as well.
**Result** ≤ 6.30

**Query** Consider next the molecule CC(=O)N1c2ccc(-c3cnn(C4CC4)c3)c(Oc3cc(C)ccn3)c2CC[C@@H]1C [I-255] in the same way.
**Result** > 7.30

**Query** Entry CCCOc1c(-c2cn3ccccc3n2)ccc2c1CC[C@H](C)N2C(C)=O [I-119] please
**Result** 6.30 to 7.30

**Query** And CCCOc1c(C2CCNCC2)ccc2c1CC[C@H](C)N2C(C)=O [I-353] ?
**Result** ≤ 6.30

**Query** Now try CC(=O)N1c2ccc(-c3cnn(C4CC4)c3)c(OCc3ncc(C)o3)c2CC[C@@H]1C [I-478] .
**Result** 6.30 to 7.30

**Query** Subsequent entry: C[C@H]1CCc2c(ccc(-c3ccn[nH]3)c2Oc2ccccc2)N1C(=O)C1CC1 [I-218]
**Result** > 7.30

**Query** Continue with COC(=O)N1c2ccc(-c3cnn(C4CC4)c3)c(OCCC3COC3)c2CC[C@@H]1C [I-30]
**Result** 6.30 to 7.30

**Query** Now consider CC(=O)N1c2ccc(-c3cnn(C4CCNCC4)c3)c(Oc3ccccc3F)c2CC[C@@H]1C [I-258] .
**Result** > 7.30

**Query** What would you report for CC(=O)N1c2ccc(-c3cnn(C4CC4)c3)c(Oc3nccc(C(F)(F)F)n3)c2CC[C@@H]1C [I-85] ?
**Result** 6.30 to 7.30

**Query** Try COC(=O)N1c2ccc(-c3cnn(CC(C)(C)O)c3)c(Oc3cnccn3)c2CC[C@@H]1C [I-559] next.
**Result** 6.30 to 7.30

**Query** Entry CC(=O)N1c2ccc(-c3cnn(C4CC4)c3)c(Oc3ccc(C)cn3)c2CC[C@@H]1C [I-287] please
**Result** > 7.30

**Query** CC(=O)N1c2ccc(-c3cnn(CC(C)(C)O)c3)c(OC3CCC3)c2CC[C@@H]1C [I-410] , same question.
**Result** > 7.30

**Query** Next record, please: COC(=O)N1c2ccc(-c3cnn(C4CCNCC4)c3)c(Oc3ncc(F)cn3)c2CC[C@@H]1C [I-533]
**Result** 6.30 to 7.30

**Query** Now consider COC(=O)N1c2ccc(-c3cnn(C4CC4)c3)c(Oc3ncccc3C#N)c2CC[C@@H]1C [I-569] and answer again.
**Result** 6.30 to 7.30

**Query** Quick one: CC(=O)N1c2ccc(-c3cnn(C4CC4)c3)c(OCC(=O)N(C)C3CC3)c2CC[C@@H]1C [I-6]
**Result** ≤ 6.30

**Query** Record: CC(=O)N1c2ccc(-c3cnn(CCS(C)(=O)=O)c3)c(OCC(C)C)c2CC[C@@H]1C [I-420]
**Result** > 7.30

**Query** Entry COC(=O)N1c2ccc(-c3cnn(C4CCNCC4)c3)c(OCC(C)C)c2CC[C@@H]1C [I-458] please
**Result** > 7.30

**Query** Now give it for COC(=O)N1c2ccc(-c3cnn(C4CCNCC4)c3)c(OC[C@H]3CCNC3)c2CC[C@@H]1C [I-477] too.
**Result** 6.30 to 7.30

**Query** Next up: CC(=O)N1c2ccc(-c3cnn(C4CCNCC4)c3)c(Oc3ncccc3Cl)c2CC[C@@H]1C [I-142]
**Result** 6.30 to 7.30

**Query** Moving on to CC(=O)N1c2ccc(-c3ccc(C(=O)N4CCOCC4)cc3)c(OCC(=O)N(C)C)c2CC[C@@H]1C [I-497]
**Result** 6.30 to 7.30

**Query** Now try CC(=O)N1c2ccc(-c3cnn(C4CC4)c3)c(Oc3ccccc3)c2CC[C@@H]1C [I-594] .
**Result** > 7.30

**Query** Try this molecule too: CC(=O)N1c2ccc(-c3cnn(C4CC4)c3)c(OCCF)c2CC[C@@H]1C [I-5]
**Result** 6.30 to 7.30

**Query** Can you handle COC(=O)N1c2ccc(-c3cnn(CCS(C)(=O)=O)c3)c(OC[C@H]3CCC(=O)N3)c2CC[C@@H]1C [I-467] next?
**Result** 6.30 to 7.30

**Query** Now this one: CCCOc1c(-c2ccc(N3CCCS3(=O)=O)cc2)ccc2c1CC[C@H](C)N2C(C)=O [I-498]
**Result** 6.30 to 7.30

**Query** Try this molecule too: CCCOc1c(-c2cnn(CCO)c2)ccc2c1CC[C@H](C)N2C(=O)OC [I-443]
**Result** > 7.30

**Query** Follow-up item: COC(=O)N1c2ccc(-c3cnn(CCO)c3)c(OCC3CCOCC3)c2CC[C@@H]1C [I-450]
**Result** 6.30 to 7.30
